# target.system: Glucocorticoid receptor (Homo sapiens)
# assay.summary: Agonist activity at glucocorticoid receptor in human A549 cells assessed as inhibition of PMA-induced AP-1 activation by luciferase reporter gene assay relative to dexamethasone
# Assay type: cell-based
// classify: if (Efficacy < 70%) fulfilled else not fulfilled

Some solved cases for reference:
> print(dat)
                                   compound          class
1  CC(C)(C(=O)Nc1nncs1)[C@@H](c1ccccc1)c1ccc2c(cnn2-c2cccnc2)c1  not fulfilled
2  CC(C)(C(=O)Nc1nncs1)C(Cc1ccccc1)c1ccc2c(cnn2-c2ccc(F)cc2)c1 (racemic)      fulfilled
3  CC(C)(C(=O)Nc1nncs1)C(c1ccccc1)c1ccc2c(cnn2-c2ccc(Cl)cc2)c1 (racemic)  not fulfilled
4  CC(C)CC(c1ccc2c(cnn2-c2ccc(F)cc2)c1)C(C)(C)C(=O)Nc1nncs1 (racemic)      fulfilled
5  CC(C)(C(=O)Nc1nncs1)[C@H](c1ccccc1)c1ccc2c(cnn2-c2ccc(F)cc2)c1      fulfilled
6  CC(C)(C(=O)Nc1nccs1)[C@@H](c1ccccc1)c1ccc2c(cnn2-c2ccc(F)cc2)c1  not fulfilled
7  CCCC(c1ccc2c(cnn2-c2ccc(F)cc2)c1)C(C)(C)C(=O)Nc1nncs1 (racemic)      fulfilled
8  Cc1cnc(NC(=O)C(C)(C)C(c2ccccc2)c2ccc3c(cnn3-c3ccc(F)cc3)c2)s1 (racemic)      fulfilled

Q: Does the reported Efficacy of CC(C(=O)Nc1nncs1)[C@@H](c1ccccc1)c1ccc2c(cnn2-c2ccc(F)cc2)c1 (single isomer, unassigned; diastereomer 3) stay below 70%?
Ans: not fulfilled

Q: Does the reported Efficacy of `CC(C)(C(=O)Nc1nncs1)[C@H](c1ccccc1)c1ccc2c(cnn2-c2cccnc2)c1` stay below 70%?
Ans: fulfilled

Q: Does the reported Efficacy of CCC(c1ccc2c(cnn2-c2ccc(F)cc2)c1)C(C)(C)C(=O)Nc1nccs1 (racemic) stay below 70%?
Ans: fulfilled

----------
# target.system: Androgen receptor (Homo sapiens)
# Sequence (P10275 whole entry): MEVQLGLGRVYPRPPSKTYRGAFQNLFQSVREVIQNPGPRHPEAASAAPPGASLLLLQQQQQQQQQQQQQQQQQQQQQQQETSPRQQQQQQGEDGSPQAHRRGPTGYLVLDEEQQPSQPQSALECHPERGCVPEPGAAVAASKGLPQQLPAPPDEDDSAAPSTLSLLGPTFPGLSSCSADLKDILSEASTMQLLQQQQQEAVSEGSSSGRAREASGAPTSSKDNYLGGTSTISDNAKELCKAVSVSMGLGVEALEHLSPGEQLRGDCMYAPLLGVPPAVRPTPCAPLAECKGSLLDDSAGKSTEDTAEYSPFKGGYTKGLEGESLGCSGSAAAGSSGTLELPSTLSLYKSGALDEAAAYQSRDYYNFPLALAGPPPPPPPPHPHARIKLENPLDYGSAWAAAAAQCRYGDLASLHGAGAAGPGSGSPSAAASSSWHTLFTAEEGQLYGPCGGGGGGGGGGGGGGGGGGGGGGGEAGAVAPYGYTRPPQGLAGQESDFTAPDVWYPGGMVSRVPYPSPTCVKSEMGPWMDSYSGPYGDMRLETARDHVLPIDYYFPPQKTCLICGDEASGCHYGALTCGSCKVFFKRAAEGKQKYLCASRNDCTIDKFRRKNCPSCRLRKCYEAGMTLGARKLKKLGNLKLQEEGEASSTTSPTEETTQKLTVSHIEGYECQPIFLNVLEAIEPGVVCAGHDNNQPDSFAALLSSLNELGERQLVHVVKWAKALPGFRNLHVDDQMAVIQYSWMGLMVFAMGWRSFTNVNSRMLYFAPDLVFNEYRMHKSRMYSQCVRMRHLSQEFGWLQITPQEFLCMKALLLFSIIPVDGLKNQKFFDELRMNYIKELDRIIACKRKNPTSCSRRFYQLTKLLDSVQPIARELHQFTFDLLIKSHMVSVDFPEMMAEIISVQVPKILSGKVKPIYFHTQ
endpoint.label: Ki

Solved cases below.
> print(dat)
                                   compound  assay.result
1  CC(C)(C(=O)Nc1nncs1)[C@@H](c1ccccc1)c1ccc2c(cnn2-c2ccc(F)cc2)c1       > 25 µM
2  CC(C)(C(=O)Nc1nncs1)[C@H](c1ccccc1)c1ccc2c(cnn2-c2ccc(F)cc2)c1       > 25 µM

Given item CC(C(=O)Nc1nncs1)[C@@H](c1ccccc1)c1ccc2c(cnn2-c2ccc(F)cc2)c1 (single isomer, unassigned; diastereomer 3) , the value recorded as its Ki is > 4.17 µM
